Each entry below carries its recorded glass transition temperature.
The reply should contain only the number, in °C.

molecule	glass transition temperature (°C)
*CCOC(=O)CC(C)O* (repeat unit)	-37.10
*Cc1ccccc1[Si](*)(C)c1ccccc1 (repeat unit)	93.80
*CC(COCCCCCC)O* (repeat unit)	-85.50

For this molecule ( *c1cc(C(=O)OCCCCCCCCCCOc2ccc(-c3ccc(OC(=O)c4ccc(OCC(F)CCCCCC)cc4)cc3)cc2)c(*)s1 (repeat unit) ), measured glass transition temperature is 151.00

For this molecule ( *ON(C(F)(F)F)C(F)(F)/C(F)=C(\F)C(*)(F)F (repeat unit) ), measured glass transition temperature is -7.00

For this molecule ( *CCCCCC(=O)Oc1ccc(Oc2ccc(OC(=O)CCCCCn3c(=O)c4cc5c(=O)n(*)c(=O)c5cc4c3=O)cc2)cc1 (repeat unit) ), measured glass transition temperature is 91.00

For this molecule ( *Oc1ccc(C(=O)Nc2ccc(Cc3ccc(NC(=O)c4ccc(Oc5nc(*)nc(Sc6ccccc6)n5)cc4)cc3)cc2)cc1 (repeat unit) ), measured glass transition temperature is 302.00

For this molecule ( *CCCCOc1ccc(/C=C2\CC/C(=C\c3ccc(OCCCCOP(=O)(O*)OC)c(OC)c3)C2=O)cc1OC (repeat unit) ), measured glass transition temperature is 75.00

For this molecule ( *O[Si](C)(C)C#C[Si](C)(C)C#C[Si](C)(C)C#C[Si](C)(C)C#C[Si](C)(C)C#C[Si](*)(C)C (repeat unit) ), measured glass transition temperature is -16.10

For this molecule ( *CC(*)C(F)(F)C(F)(F)C(F)(F)F (repeat unit) [Poly[(heptafluoropropyl)ethylene] ] ), measured glass transition temperature is 58

For this molecule ( *Nc1cc(NC(=O)c2cc(NC(=O)C(C(C)CC)N3C(=O)c4ccccc4C3=O)cc(C(*)=O)c2)ccc1C (repeat unit) ), measured glass transition temperature is 166.00

For this molecule ( *C1C2CC(C1*)C([Si](C)(C)C)C2 (repeat unit) ), measured glass transition temperature is 303.00

For this molecule ( *CC(*)C(=O)OCCCCOc1ccc(/N=N/c2ccc([N+](=O)[O-])cc2)cc1 (repeat unit) ), measured glass transition temperature is 36.70

For this molecule ( *Oc1ccccc1C(=O)OC(=O)c1ccccc1OC(=O)c1ccc(C(*)=O)cc1 (repeat unit) ), measured glass transition temperature is 120.00

For this molecule ( *c1cccc(Oc2ccc(S(=O)(=O)c3ccc(Oc4cccc(-n5c(=O)c6cc7c(=O)n(*)c(=O)c7cc6c5=O)c4)cc3)cc2)c1 (repeat unit) ), measured glass transition temperature is 223.2

For this molecule ( *c1ccc2c(c1)C(=O)N(c1ccc(OCCN(CCOc3ccc(N4C(=O)c5ccc(C(*)(C(F)(F)F)C(F)(F)F)cc5C4=O)cc3)c3ccc(C(C#N)=C(C#N)C#N)cc3)cc1)C2=O (repeat unit) ), measured glass transition temperature is 218.00

For this molecule ( *CC(*)c1ccc(C(C)(O)CCC)cc1 (repeat unit) ), measured glass transition temperature is 135.00

###

Rule: measured glass transition temperature below 200 °C gets fulfilled; anything equal to or greater than 200 °C gets not fulfilled.

Solved entries (count: 5):
compound	label
*c1ccc(-c2ccc(N(*)c3ccc(CCCC)cc3)cc2)cc1 (repeat unit)	fulfilled
*c1ccc(Oc2ccc(Oc3ccc(Oc4ccc(N5C(=O)c6ccc(-c7ccc8c(c7)C(=O)N(*)C8=O)cc6C5=O)cc4)cc3)cc2)cc1 (repeat unit)	not fulfilled
*c1cccc(-c2nc3cc(Oc4ccc5nc(-c6ccccc6)c(*)nc5c4)ccc3nc2-c2ccccc2)c1 (repeat unit)	not fulfilled
*/C=C/C1CC(*)C2C3CCC(C3)C12 (repeat unit)	not fulfilled
*Nc1cccc2c(NC(=O)c3ccc(C(*)=O)cc3)cccc12 (repeat unit)	not fulfilled

Below 200 °C on glass transition temperature? Entry *CCOCCOCCOCCOCCOCCOc1ccc(C(=O)Nc2cc(NC(=O)c3ccc(O*)cc3)cc(-c3nc4ccccc4[nH]3)c2)cc1 (repeat unit)
fulfilled

Below 200 °C on glass transition temperature? Entry *c1ccc(Oc2ccc(Oc3ccc(NC(=O)c4ccc(Oc5cccc6c5C(=O)N(*)C6=O)cc4)cc3)cc2)cc1 (repeat unit)
not fulfilled
